Each recorded value in this set is attributed to the NIST ThermoML archive (doi:10.1016/j.tca.2012.01.013).

Conditions: 303.15 K; 101 kPa; Liquid; Vibrating tube method
Each record here notes measured mass density.
Field format: number, assumed kg/m3, no unit text.

Compound	mass density (kg/m3)
COC(=O)CCCCC(=O)OC [dimethyl 1,6-hexanedioate]	1052.18
COC(=O)c1ccccc1C(=O)OC [dimethyl 1,2-benzenedicarboxylate]	1182.28
CCC(C)O (stereo not given)	798.326

Dear colleague, I am looking for the recorded mass density of the following compound: `CCC(C)=O` 794.435

Also `CCCCO` , if possible. 801.923

* * *

Assay: refractive index (Na D-line) (dimensionless)
Details: 323.15 K; 101.33 kPa; Liquid; Standard Abbe refractometry
Each record here notes measured refractive index.
Format: numeric value only, no unit, no commentary.

Use these answered entries as a reference point.
Compound	Reading
CCC(C)=O [butanone]	1.36294
COC(=O)c1ccccc1C(=O)OC [dimethyl 1,2-benzenedicarboxylate]	1.5032
CCCCO [butan-1-ol]	1.38688

Dear colleague, I am looking for the recorded refractive index of the following compound: CCC(C)O (stereo not given) [butan-2-ol] 1.38352

Also COC(=O)CCCCC(=O)OC [dimethyl 1,6-hexanedioate] , if possible. 1.41614
